# credit: paper PMC2791412

Reported Kd values follow for various binders
Molecular target: calmodulin (native vertebrate CaM) (vertebrate, UniProt P0DP23 1-149)
Assay: other fluorescence titration
No end group written: not given here.

BINDER	Kd, µM
AHKAATKIQASFRGHITRKKLKGEKKDDVQ (domain or fragment, also: fluorescent reporter) [BIQ, fluorescent reporter containing an IQ domain sequence derived from neuromodulin]	2.4
TERAAVAIQSQFRKFQKKKAGSQS (domain or fragment, also: fluorescent reporter) [BIQPEP, fluorescent reporter containing an IQ domain sequence derived from PEP19]	1130
